Sourced from PubChem BioAssay AID1259407

# Tested on: CCRIS mutagenicity, Ames/micronucleus/aberration tests
# assay_explanation: CCRIS mutagenicity studies
# condition_set: Test System: AMES SALMONELLA TYPHIMURIUM; Strain/Indicator: TA102; Metabolic Activation: NONE; Method: STANDARD PLATE
The source made the active and inactive calls. How the calls were made is not given here.
Hello, when you answer, please use one of the following outcomes: label 1 (active), label 0 (inactive)

Inquiry: Identify the outcome logged in this assay for the compound shown: CCC(CCC(C)O)COC(=O)CCCCC(=O)O (centres undefined)
Reply text: label 0

Inquiry: How about Clc1cccnc1 ?
Reply text: label 0

Inquiry: How about [Cl][Pt-2]([Cl])([Cl])([Cl])([Cl])[Cl] ?
Reply text: label 1

Inquiry: How about Cc1ccccn1 ?
Reply text: label 0

Inquiry: How about CC(C)(c1ccc(O)cc1)c1ccc(O)cc1 ?
Reply text: label 0

Inquiry: How about COC(C)(C)C ?
Reply text: label 0

Inquiry: How about CCOP(=O)(OCC)OCC ?
Reply text: label 0

Inquiry: How about NN(Cc1ccccc1)Cc1ccccc1 ?
Reply text: label 0

Inquiry: How about O=C1CNC(=O)N1 ?
Reply text: label 0

---

# Tested on: CCRIS mutagenicity, Ames/micronucleus/aberration tests
# assay_explanation: CCRIS mutagenicity studies
# condition_set: Test System: AMES SALMONELLA TYPHIMURIUM; Strain/Indicator: TA98; Metabolic Activation: RAT, LIVER, S-9, AROCLOR 1254; Method: STANDARD PLATE
Calls of active or inactive are those of the source. How the calls were made is not given here.
Hello, when you answer, please use one of the following outcomes: active, inactive

Inquiry: Identify the outcome logged in this assay for the compound shown: CCC(CCC(C)O)COC(=O)CCCCC(=O)O (configuration not stated)
Reply text: inactive

Inquiry: How about Clc1cccnc1 ?
Reply text: inactive

Inquiry: How about Cc1cc(S(=O)(=O)O)c(N)cc1Cl ?
Reply text: active

Inquiry: How about Clc1cc(Cl)nc(Cl)n1 ?
Reply text: inactive

Inquiry: How about CC1(C)[C@@H]2CC[C@@]1(C)C(=O)C2=O ?
Reply text: inactive

Inquiry: How about O=Nc1ccc(NNc2ccccc2)cc1 ?
Reply text: active

Inquiry: How about CC(=O)c1c(C)c([N+](=O)[O-])c(C(C)(C)C)c([N+](=O)[O-])c1C ?
Reply text: inactive

---

# Test system: CCRIS mutagenicity, Ames/micronucleus/aberration tests
# assay_explanation: CCRIS mutagenicity studies
# condition_set: Test System: AMES SALMONELLA TYPHIMURIUM; Strain/Indicator: TA98; Metabolic Activation: RAT, LIVER, S-9, AROCLOR 1254; Method: PREINCUBATION
Calls of active or inactive are those of the source. No rule for the calls is given here.
Hello, when you answer, please use one of the following outcomes: t = active, f = inactive

Inquiry: Identify the outcome logged in this assay for the compound shown: CCC(C)C=O (configuration not stated)
Reply text: f

Inquiry: How about CC(=O)Nc1ccc(Nc2ccc([N+](=O)[O-])cc2)cc1 ?
Reply text: t

Inquiry: How about Oc1ccccc1 ?
Reply text: f

Inquiry: How about c1cc(OCC2CO2)cc(OCC2CO2)c1 (configuration not stated) ?
Reply text: f

Inquiry: How about CC(C)NCC(O)c1ccc(O)c(O)c1 (configuration not stated) ?
Reply text: f

Inquiry: How about CC1=CC[C@H]2C(C)=CC[C@@H](C(C)C)[C@@H]2C1 ?
Reply text: f

Inquiry: How about Cc1nn(C)c(NC(=O)CNCCCN2CCCCC2C)c1C(=O)c1ccccc1F (configuration not stated) ?
Reply text: t

Inquiry: How about Cc1ccc(N=Nc2ccc(N(CCO)CCO)cc2)cc1 ?
Reply text: f

Inquiry: How about CN(C)C(=O)Nc1ccc(Cl)cc1 ?
Reply text: f

Inquiry: How about Fc1c(F)c(F)c(Cl)c(F)c1F ?
Reply text: f

Inquiry: How about CCC[C@]1(O)CC[C@H]2[C@@H]3CC[C@H]4CC(=O)C[C@H](C)[C@]4(C)[C@H]3CC[C@@]21C ?
Reply text: f

Inquiry: How about CCCCOC(=O)c1ccc(N)cc1 ?
Reply text: f

Inquiry: How about CC(Cl)CCCC(Cl)CCCC(Cl)CCCC(Cl)CCCC(Cl)CCCC(Cl)CCCl (configuration not stated) ?
Reply text: f

Inquiry: How about Cc1cc(/C=C/c2ccc3cc(N(C)C)ccc3[n+]2C)c(C)n1-c1ccccc1 ?
Reply text: t

Inquiry: How about OCc1ccccc1 ?
Reply text: f

Inquiry: How about c1ccc2nccnc2c1 ?
Reply text: t

Inquiry: How about CC(=O)c1c(C)c([N+](=O)[O-])c(C(C)(C)C)c([N+](=O)[O-])c1C ?
Reply text: f

Inquiry: How about OC[P+](CO)(CO)CO ?
Reply text: f

Inquiry: How about COc1cc(CNC(=O)CCCC/C=C/C(C)C)ccc1O ?
Reply text: f

Inquiry: How about Nc1ccc2c(c1)CN1C(=O)c3ccccc3C1=N2 ?
Reply text: t

Inquiry: How about Cc1ccc2nc(N)[nH]c2c1 ?
Reply text: t

Inquiry: How about c1cc2ccc3cccc4ccc(c1)c2c34 ?
Reply text: f

Inquiry: How about Cc1nccnc1C ?
Reply text: f

Inquiry: How about C=CC(=O)N(CC1CO1)CC1CO1 (configuration not stated) ?
Reply text: f

Inquiry: How about COc1ccc2c(c1)nc(N)n2C ?
Reply text: t

Inquiry: How about CN=C=O ?
Reply text: f

Inquiry: How about CC1(C)COC1=O ?
Reply text: f

Inquiry: How about c1ccc2c(c1)[nH]c1cnccc12 ?
Reply text: f

Inquiry: How about O=c1[nH]c(=O)n([C@H]2C[C@H](O)[C@@H](CO)O2)cc1/C=C/Br ?
Reply text: f

Inquiry: How about C=O ?
Reply text: t

Inquiry: How about Nc1ccc(NCCO)c([N+](=O)[O-])c1 ?
Reply text: t

Inquiry: How about ClCC(Cl)CCl ?
Reply text: f

Inquiry: How about ClC(Cl)=C(Cl)Cl ?
Reply text: f

Inquiry: How about Cc1ccccn1 ?
Reply text: f

Inquiry: How about O=[N+]([O-])c1c(Cl)c(Cl)cc(Cl)c1Cl ?
Reply text: f

Inquiry: How about C1CNCCN1 ?
Reply text: f

Inquiry: How about CCCCOCCOP(=O)(OCCOCCCC)OCCOCCCC ?
Reply text: f

---

# Tested on: CCRIS mutagenicity, Ames/micronucleus/aberration tests
# assay_explanation: CCRIS mutagenicity studies
# condition_set: Test System: AMES SALMONELLA TYPHIMURIUM; Strain/Indicator: TA1537; Metabolic Activation: NONE; Method: STANDARD PLATE
# Description: The CCRIS database contains chemical records with carcinogenicity, mutagenicity, tumor promotion, and tumor inhibition test results. It was developed by the National Cancer Institute (NCI). Data are derived from studies cited in primary journals, current awareness tools, NCI reports, and other sources. Test results have been reviewed by experts in carcinogenesis and mutagenesis. CCRIS provides historical information from the years 1985 - 2011. It is no longer updated. […]
Calls of active or inactive are those of the source. The rule behind the calls is not given here.
Hello, when you answer, please use one of the following outcomes: 1 (yes) for active, 0 (no) for inactive

Inquiry: Identify the outcome logged in this assay for the molecule shown: CC(S)C(=O)NCC(=O)O (centres undefined)
Reply text: 0 (no)

Inquiry: How about O=C(O)c1ccc(O)c2c1C(=O)c1cc(O)cc(O)c1C2=O ?
Reply text: 0 (no)

Inquiry: How about Nc1ccc(O)c2c1C(=O)c1ccccc1C2=O ?
Reply text: 1 (yes)

Inquiry: How about CCC(=O)n1ncc(Cl)c(Cl)c1=O ?
Reply text: 0 (no)

Inquiry: How about O=C(NC(Cc1cc(=O)[nH]c2ccccc12)C(=O)O)c1ccc(Cl)cc1 (centres undefined) ?
Reply text: 0 (no)

Inquiry: How about FC(F)(F)c1cccc(Cl)c1 ?
Reply text: 0 (no)

Inquiry: How about O=[N+]([O-])c1ccc(-c2nc3sccn3c2[N+](=O)[O-])cc1 ?
Reply text: 1 (yes)

Inquiry: How about O=P1(N(CCCl)CCCl)NCCCO1 (centres undefined) ?
Reply text: 0 (no)

Inquiry: How about CC(=O)Nc1ccc(OC(=O)c2ccccc2OC(C)=O)cc1 ?
Reply text: 0 (no)

Inquiry: How about C[C@]12CC[C@H](OC(=O)COc3ccc(N(CCCl)CCCl)cc3)C[C@@H]1CC[C@@H]1[C@@H]2CC[C@]2(C)NC(=O)CC[C@@H]12 ?
Reply text: 0 (no)

Inquiry: How about O=[N+]([O-])c1cccc2nscc12 ?
Reply text: 1 (yes)

Inquiry: How about O=[N+]([O-])c1ccc(N=Nc2ccc(N(CCO)CCO)cc2)c([N+](=O)[O-])c1 ?
Reply text: 1 (yes)

Inquiry: How about Fc1c(F)c(F)c(Cl)c(F)c1F ?
Reply text: 0 (no)

Inquiry: How about CC(C)[C@]12CC(=O)[C@H](C)[C@H]1C2 ?
Reply text: 0 (no)

Inquiry: How about COC(=O)c1cc2c(c3c1ccc1c(OC)cccc13)OCO2 ?
Reply text: 1 (yes)

Inquiry: How about Clc1cc(Cl)nc(Cl)n1 ?
Reply text: 0 (no)

Inquiry: How about Clc1nc2ccccc2nc1Cl ?
Reply text: 0 (no)

Inquiry: How about CNc1ncn(C)c1C(=O)N(C)N=O ?
Reply text: 0 (no)

Inquiry: How about Cc1cc(/C=C/c2ccc3cc(N(C)C)ccc3[n+]2C)c(C)n1-c1ccccc1 ?
Reply text: 0 (no)

Inquiry: How about c1ccc([C@H]2N[C@@H]2c2ccccc2)cc1 ?
Reply text: 0 (no)

Inquiry: How about CC(C)(c1ccc(OCC(O)CO)cc1)c1ccc(OCC(O)CO)cc1 (centres undefined) ?
Reply text: 0 (no)

Inquiry: How about CN(C(=O)CCl)c1snc2ccccc12 ?
Reply text: 0 (no)

Inquiry: How about O=C(c1ccc([N+](=O)[O-])cc1)n1ncc(Cl)c(Cl)c1=O ?
Reply text: 0 (no)

Inquiry: How about CC(C)OC(=O)COc1ccc(Cl)cc1Cl ?
Reply text: 0 (no)

Inquiry: How about CC(O)CN(C)c1ccc(NN)nn1 (centres undefined) ?
Reply text: 1 (yes)

Inquiry: How about O=C(O)/C=C\C(=O)O ?
Reply text: 0 (no)

Inquiry: How about OC(Nc1snc2ccccc12)C(Cl)(Cl)Cl (centres undefined) ?
Reply text: 0 (no)

Inquiry: How about C/C=C\c1ccc(OC)cc1OC ?
Reply text: 0 (no)

Inquiry: How about O=C(O)c1cc(Br)cc2cccnc12 ?
Reply text: 0 (no)
